ASSAY_PROTOCOL: Water solubility of the compound
Format: ADME
RUN_CONDITIONS: read-out: S
Quick reference: solubility of the listed items.
Give the quantity in µg/mL, number only.

{"columns": ["COMPOUND", "solubility [µg/mL]"],
 "data": [
  ["CC(=O)O[C@@]12CO[C@@H]1C[C@H](O)[C@@]1(C)C(=O)[C@H](O)C3=C(C)[C@@H](OC(=O)[C@H](O)[C@@H](NC(=O)NC(C)(C)C)C(C)(C)C)C[C@@](O)([C@@H](OC(=O)c4ccccc4)[C@H]21)C3(C)C", 29],
  ["CC(=O)O[C@@]12CO[C@@H]1C[C@H](O)[C@@]1(C)C(=O)[C@H](O)C3=C(C)[C@@H](OC(=O)[C@H](O)[C@@H](NC(=O)OC(C)(C)C)c4ccccc4)C[C@@](O)([C@@H](OC(=O)c4ccccc4)[C@H]21)C3(C)C.O.O.O [DOCETAXEL]", 5],
  ["CC(=O)O[C@@]12CO[C@@H]1C[C@H](O)[C@@]1(C)C(=O)[C@H](O)C3=C(C)[C@@H](OC(=O)[C@H](O)[C@@H](NC(=O)c4ccccc4)C(C)(C)C)C[C@@](O)([C@@H](OC(=O)c4ccccc4)[C@H]21)C3(C)C", 2.8]
]}

// Input: CCCCOC(=O)N[C@H]([C@@H](O)C(=O)O[C@H]1C[C@@]2(O)[C@@H](OC(=O)c3ccccc3)[C@@H]3[C@]4(OC(C)=O)CO[C@@H]4C[C@H](O)[C@@]3(C)C(=O)[C@H](O)C(=C1C)C2(C)C)C(C)(C)C . Output its solubility only.
27

* * *

Quick reference: solubility of the listed items.
ASSAY_PROTOCOL: Water solubility of the compound
Assay type: ADME
RUN_CONDITIONS: read-out: S
Give the quantity in µg/mL, number only.

{"columns": ["SMILES_CODE", "SCALE_UNIT", "solubility"],
 "data": [
  ["CC(=O)O[C@H]1C(=O)[C@@]2(C)[C@H]([C@H](OC(=O)c3ccccc3)[C@]3(O)C[C@H](OC(=O)[C@H](O)[C@@H](NC(=O)c4ccccc4)c4ccccc4)C(C)=C1C3(C)C)[C@]1(OC(C)=O)CO[C@@H]1C[C@@H]2O", "µg/mL", 0.3],
  ["CC(=O)O[C@@]12CO[C@@H]1C[C@H](O)[C@@]1(C)C(=O)[C@H](O)C3=C(C)[C@@H](OC(=O)[C@H](O)[C@@H](NC(=O)OCC(C)C)C(C)(C)C)C[C@@](O)([C@@H](OC(=O)c4ccccc4)[C@H]21)C3(C)C", "µg/mL", 28],
  ["CC(=O)O[C@@]12CO[C@@H]1C[C@H](O)[C@@]1(C)C(=O)[C@H](O)C3=C(C)[C@@H](OC(=O)[C@H](O)[C@@H](NC(=O)OC(C)(C)C)C(C)(C)C)C[C@@](O)([C@@H](OC(=O)c4ccccc4)[C@H]21)C3(C)C", "µg/mL", 28]
]}

// Input: CCC(C)(C)OC(=O)N[C@H]([C@@H](O)C(=O)O[C@H]1C[C@@]2(O)[C@@H](OC(=O)c3ccccc3)[C@@H]3[C@]4(OC(C)=O)CO[C@@H]4C[C@H](O)[C@@]3(C)C(=O)[C@H](O)C(=C1C)C2(C)C)C(C)(C)C . Output its solubility only.
26

// Input: CC(=O)O[C@@]12CO[C@@H]1C[C@H](O)[C@@]1(C)C(=O)[C@H](O)C3=C(C)[C@@H](OC(=O)[C@H](O)[C@@H](NC(=O)Nc4ccccc4)C(C)(C)C)C[C@@](O)([C@@H](OC(=O)c4ccccc4)[C@H]21)C3(C)C . Output its solubility only.
1.4

// Input: CC(=O)O[C@@]12CO[C@@H]1C[C@H](O)[C@@]1(C)C(=O)[C@H](O)C3=C(C)[C@@H](OC(=O)[C@H](O)[C@@H](NC(=O)CC(C)(C)C)C(C)(C)C)C[C@@](O)([C@@H](OC(=O)c4ccccc4)[C@H]21)C3(C)C . Output its solubility only.
26
